# Tested on: Opioid receptors; mu & delta
# test-summary: Selectivity ratio against mu opioid receptor to that of delta opioid receptor was determined
Below, each of the compounds is paired with its reported Ratio value.
Form: value (number only, do not type unit).

Some compounds with known Ratio results, for comparison:
chemical_string=C[C@H]1NC(=O)[C@H](Cc2ccccc2)NC(=O)[C@H](CCCCN)N(C(=O)[C@@H](N)Cc2ccc(O)cc2)C1=O target_entity="Opioid receptors; mu & delta" measured_value=4.9
chemical_string=NCCCC[C@H]1C(=O)N[C@@H](Cc2ccccc2)C(=O)N[C@H](CC(=O)O)C(=O)N1C(=O)[C@@H](N)Cc1ccc(O)cc1 target_entity="Opioid receptors; mu & delta" measured_value=0.94

[Q] Report Ratio for `C[C@H]1NC(=O)[C@H](Cc2ccccc2)NC(=O)[C@H](CCN)N(C(=O)[C@@H](N)Cc2ccc(O)cc2)C1=O` please.
[A] 12

[Q] Given the entry `CC[C@@H](C)[C@H]1NC(=O)[C@H](Cc2ccccc2)NC(=O)[C@H](CCCCN)N(C(=O)[C@@H](N)Cc2ccc(O)cc2)C1=O` , report its measured Ratio.
[A] 6

[Q] Entry `CC(C)C[C@H]1NC(=O)[C@H](Cc2ccccc2)NC(=O)[C@H](CCCCN)N(C(=O)[C@@H](N)Cc2ccc(O)cc2)C1=O` : reported Ratio = ?
[A] 4.5

[Q] Could you share which Ratio value was measured for `CC(C)[C@H]1NC(=O)[C@H](Cc2ccccc2)NC(=O)[C@H](CCCCN)N(C(=O)[C@@H](N)Cc2ccc(O)cc2)C1=O` ?
[A] 2.2

[Q] Would you kindly share the measured Ratio for `C[C@H]1NC[C@H](Cc2ccccc2)NC(=O)[C@H](CCN)N(C(=O)[C@@H](N)Cc2ccc(O)cc2)C1=O` ?
[A] 12

====

# target-entity: Mu-type opioid receptor (Cavia porcellus, UniProt P97266)
# Sequence (P97266 whole entry): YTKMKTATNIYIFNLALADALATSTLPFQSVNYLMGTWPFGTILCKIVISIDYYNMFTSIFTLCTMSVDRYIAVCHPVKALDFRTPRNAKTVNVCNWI
# test-summary: Concentration required for 50% inhibition of electrically induced contraction of the guinea pig ileum mediated through mu opioid receptor
A collection of molecules and their measured IC50

chemical_string=CC(C)[C@@H]1NC(=O)[C@H](Cc2ccccc2)NC(=O)[C@@H](CCCCN)N(C(=O)[C@@H](N)Cc2ccc(O)cc2)C1=O readout=IC50 measured_value="0.2 nM"
chemical_string=C[C@@H]1NC(=O)[C@H](Cc2ccccc2)NC(=O)[C@@H](CCCCN)N(C(=O)[C@@H](N)Cc2ccc(O)cc2)C1=O readout=IC50 measured_value="0.11 nM"

[Q] Which IC50 reading was recorded for the molecule `CC(C)C[C@@H]1NC(=O)[C@H](Cc2ccccc2)NC(=O)[C@@H](CCCCN)N(C(=O)[C@@H](N)Cc2ccc(O)cc2)C1=O` ?
[A] 1.4 nM

====

# target-entity: Delta-type opioid receptor (Mus musculus)
# Sequence (P32300 whole entry): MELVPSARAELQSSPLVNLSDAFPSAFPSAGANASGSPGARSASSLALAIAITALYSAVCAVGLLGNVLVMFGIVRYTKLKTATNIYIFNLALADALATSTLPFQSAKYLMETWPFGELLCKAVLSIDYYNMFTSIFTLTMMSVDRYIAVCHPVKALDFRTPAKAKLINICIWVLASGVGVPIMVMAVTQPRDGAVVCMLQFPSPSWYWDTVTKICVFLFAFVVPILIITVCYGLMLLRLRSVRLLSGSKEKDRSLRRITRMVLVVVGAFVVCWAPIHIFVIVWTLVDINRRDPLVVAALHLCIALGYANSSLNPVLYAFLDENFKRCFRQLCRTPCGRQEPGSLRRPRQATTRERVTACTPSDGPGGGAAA
# test-summary: Concentration required for 50% inhibition of electrically induced contraction of the mouse vas deferens mediated through delta opioid receptor
Reported values of IC50 for individual entries
Quick reminder: number only, in nM, skip the unit.

Some solved cases for reference:
chemical_string=CC(C)[C@@H]1NC(=O)[C@H](Cc2ccccc2)NC(=O)[C@@H](CCCCN)N(C(=O)[C@@H](N)Cc2ccc(O)cc2)C1=O measured_value=0.44
chemical_string=C[C@@H]1NC(=O)[C@H](Cc2ccccc2)NC(=O)[C@@H](CCCCN)N(C(=O)[C@@H](N)Cc2ccc(O)cc2)C1=O measured_value=0.54
chemical_string=NCCCC[C@@H]1C(=O)N[C@@H](Cc2ccccc2)C(=O)N[C@@H](CC(=O)O)C(=O)N1C(=O)[C@@H](N)Cc1ccc(O)cc1 measured_value=73.8

[Q] Which IC50 is reported for this molecule? `CC(C)C[C@@H]1NC(=O)[C@H](Cc2ccccc2)NC(=O)[C@@H](CCCCN)N(C(=O)[C@@H](N)Cc2ccc(O)cc2)C1=O`
[A] 6.2
